# System: 772245-204-R-J1-PDC complex spheroid growth
# assay notes: Anticancer human tumor 772245-204-R-J1-PDC patient-derived rhabdomyosarcoma cell line growth inhibition [Asc]
# particulars: second compound 0.3 µM; first compound 0.0316 µM; stronger effect = lower value
measured metric: viability, T/C (%)

{"columns": ["compound", "value reported"],
 "data": [
  ["COc1c(OCCCN2CCOCC2)ccc2c3n(c(=NC(=O)c4cnc(N)nc4)nc12)CCN3 + CCN1C(C(=O)NC23CCC(C(=O)O)(CC2)CC3)C(c2cccc(Cl)c2F)C2(C(=O)Nc3cc(Cl)ccc32)C12CCCCC2", 84.7],
  ["O=C(c1cc(Cc2n[nH]c(=O)c3ccccc23)ccc1F)N1CCN(C(=O)C2CC2)CC1 + CCN1C(C(=O)NC23CCC(C(=O)O)(CC2)CC3)C(c2cccc(Cl)c2F)C2(C(=O)Nc3cc(Cl)ccc32)C12CCCCC2", 121],
  ["NC1CCC(NC2CC2c2ccccc2)CC1 (stereo not drawn) + CCN1C(C(=O)NC23CCC(C(=O)O)(CC2)CC3)C(c2cccc(Cl)c2F)C2(C(=O)Nc3cc(Cl)ccc32)C12CCCCC2", 111]
]}

---

Each record here notes measured viability, T/C.
# Tested on: 772245-204-R-J1-PDC complex spheroid growth
# assay notes: Anticancer human tumor 772245-204-R-J1-PDC cell line growth inhibition [Asc];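 also: compound exposure lasted seven days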;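 as to viability, T/C: 100% = DMSO vehicle control viability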
# particulars: second compound 0.01 µM; first compound 3.16 µM; stronger effect = lower value

{"columns": ["compound", "viability, T/C (%)"],
 "data": [
  ["C#Cc1c(F)ccc2cc(O)cc(-c3ncc4c(N5CC6CCC(C5)N6)nc(OCC56CCCN5CC(F)C6)nc4c3F)c12 (centres undefined) + CNC(C)C(=O)NC1CN(S(=O)(=O)c2cccc(S(=O)(=O)N3CCC4CCC(C(=O)NC(c5ccccc5)c5ccccc5)N4C(=O)C(NC(=O)C(C)NC)C3)c2)CCC2CCC(C(=O)NC(c3ccccc3)c3ccccc3)N2C1=O", 86.5],
  ["C=CC(=O)N1CCN(c2nc(=O)n(-c3c(C)ccnc3C(C)C)c3nc(-c4c(O)cccc4F)c(F)cc23)C(C)C1 (centres undefined) + CNC(C)C(=O)NC1CN(S(=O)(=O)c2cccc(S(=O)(=O)N3CCC4CCC(C(=O)NC(c5ccccc5)c5ccccc5)N4C(=O)C(NC(=O)C(C)NC)C3)c2)CCC2CCC(C(=O)NC(c3ccccc3)c3ccccc3)N2C1=O", 92],
  ["C=C(F)C(=O)N1CCN(c2nc(OCC3CCCN3C)nc3c2CCN(c2cccc4cccc(Cl)c24)C3)CC1CC#N (centres undefined) + CNC(C)C(=O)NC1CN(S(=O)(=O)c2cccc(S(=O)(=O)N3CCC4CCC(C(=O)NC(c5ccccc5)c5ccccc5)N4C(=O)C(NC(=O)C(C)NC)C3)c2)CCC2CCC(C(=O)NC(c3ccccc3)c3ccccc3)N2C1=O", 87.2],
  ["O=C(c1cc(Cc2n[nH]c(=O)c3ccccc23)ccc1F)N1CCN(C(=O)C2CC2)CC1 + CNC(C)C(=O)NC1CN(S(=O)(=O)c2cccc(S(=O)(=O)N3CCC4CCC(C(=O)NC(c5ccccc5)c5ccccc5)N4C(=O)C(NC(=O)C(C)NC)C3)c2)CCC2CCC(C(=O)NC(c3ccccc3)c3ccccc3)N2C1=O", 80.5]
]}

---

# System: 772245-204-R-J1-PDC complex spheroid growth
# assay notes: Anticancer human tumor 772245-204-R-J1-PDC cell line growth inhibition [Asc];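 also: compound exposure lasted seven days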
# particulars: curve of first compound; second compound 0.316 µM
pIC50: −log10 of the molar value.
measured metric: pIC50

{"columns": ["compound", "reported relation", "value reported"],
 "data": [
  ["NC1CCC(NC2CC2c2ccccc2)CC1 (centres undefined) + Cc1c(S(C)(=O)=O)c(-c2cc(F)cc(N3CCN(c4ccc(NS(=O)(=O)c5ccc(NC(CCN6CCC(C(=O)OCCCP(=O)(O)O)CC6)CSc6ccccc6)c(S(=O)(=O)C(F)(F)F)c5)cc4)CC3)c2)c(-c2ccc(Cl)cc2)n1C(C)C", ">", 9.50],
  ["C=C(F)C(=O)N1CCN(c2nc(OCC3CCCN3C)nc3c2CCN(c2cccc4cccc(Cl)c24)C3)CC1CC#N (centres undefined) + CNC(C)C(=O)NC1CN(S(=O)(=O)c2cccc(S(=O)(=O)N3CCC4CCC(C(=O)NC(c5ccccc5)c5ccccc5)N4C(=O)C(NC(=O)C(C)NC)C3)c2)CCC2CCC(C(=O)NC(c3ccccc3)c3ccccc3)N2C1=O", "=", 5.31],
  ["NC(=O)C(=Cn1cnc(-c2cc(C(F)(F)F)cc(C(F)(F)F)c2)n1)c1cncnc1 + CNC(C)C(=O)NC1CN(S(=O)(=O)c2cccc(S(=O)(=O)N3CCC4CCC(C(=O)NC(c5ccccc5)c5ccccc5)N4C(=O)C(NC(=O)C(C)NC)C3)c2)CCC2CCC(C(=O)NC(c3ccccc3)c3ccccc3)N2C1=O", "<", 6.52],
  ["C=CC(=O)N1CCN(c2nc(=O)n(-c3c(C)ccnc3C(C)C)c3nc(-c4c(O)cccc4F)c(F)cc23)C(C)C1 (centres undefined) + Cc1c(S(C)(=O)=O)c(-c2cc(F)cc(N3CCN(c4ccc(NS(=O)(=O)c5ccc(NC(CCN6CCC(C(=O)OCCCP(=O)(O)O)CC6)CSc6ccccc6)c(S(=O)(=O)C(F)(F)F)c5)cc4)CC3)c2)c(-c2ccc(Cl)cc2)n1C(C)C", "=", 5.61]
]}
